Exercise: for every item that follows, state its recorded MC3R cAMP (EC50).
Molecular target: human MC3R (human, UniProt P41968 1-323)
Sequence (P41968 whole entry): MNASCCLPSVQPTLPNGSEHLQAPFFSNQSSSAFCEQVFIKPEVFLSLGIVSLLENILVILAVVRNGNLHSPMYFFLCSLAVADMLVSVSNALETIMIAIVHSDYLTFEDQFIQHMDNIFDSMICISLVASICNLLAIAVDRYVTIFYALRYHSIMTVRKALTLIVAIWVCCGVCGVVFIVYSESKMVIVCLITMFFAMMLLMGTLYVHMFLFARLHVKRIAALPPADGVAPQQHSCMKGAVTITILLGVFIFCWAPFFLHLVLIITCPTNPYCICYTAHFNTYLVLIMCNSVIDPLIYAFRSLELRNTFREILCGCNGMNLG
Test: cell-based or functional assay
Non-standard residues stand in square brackets, D forms with d. PKcap1 = N-terminal cap C18 diacid-γGlu-mPEG2; PKcap2 = N-terminal cap Aryl(4-I)-Gly-mPEG2; Bip = N[C@@H](Cc1ccc(-c2ccccc2)cc1)C(=O)O; Phe(4-Br) = N[C@@H](Cc1ccc(Br)cc1)C(=O)O; dNle = CCCC[C@@H](N)C(=O)O; Nle = CCCC[C@H](N)C(=O)O; Aib = CC(C)(N)C(=O)O
Field format: number, assumed nM, no unit text.

Q: Any idea what its MC3R cAMP (EC50) is? The binder is Ac-[Nle][dNle]HFR[dW]DRFG-OH (SMILES CCCC[C@H](NC(C)=O)C(=O)N[C@H](CCCC)C(=O)N[C@@H](Cc1c[nH]cn1)C(=O)N[C@@H](Cc1ccccc1)C(=O)N[C@@H](CCCNC(=N)N)C(=O)N[C@H](Cc1c[nH]c2ccccc12)C(=O)N[C@@H](CC(=O)O)C(=O)N[C@@H](CCCNC(=N)N)C(=O)N[C@@H](Cc1ccccc1)C(=O)NCC(=O)O) [CTX-1182]
A: 14.6

Q: Any idea what its MC3R cAMP (EC50) is? The binder is YVXXHFRWDRFG (Nle at 3; Aib at 4; D-Trp at 8) [CTX-1134]
A: 2.5

Q: Any idea what its MC3R cAMP (EC50) is? The binder is H-YV[Nle][Aib]HFR[dW]D-NH2 (SMILES CCCC[C@H](NC(=O)[C@@H](NC(=O)[C@@H](N)Cc1ccc(O)cc1)C(C)C)C(=O)NC(C)(C)C(=O)N[C@@H](Cc1c[nH]cn1)C(=O)N[C@@H](Cc1ccccc1)C(=O)N[C@@H](CCCNC(=N)N)C(=O)N[C@H](Cc1c[nH]c2ccccc12)C(=O)N[C@@H](CC(=O)O)C(N)=O) [CTX-1130]
A: 26.5

Q: Any idea what its MC3R cAMP (EC50) is? The binder is YVXAHFRWDRFG (Nle at 3; D-Ala at 4; D-Trp at 8) [CTX-1103]
A: 4.3

Q: Any idea what its MC3R cAMP (EC50) is? The binder is Ac-[Nle][dA]H[Bip]R[dW]DRFG-NH2 (SMILES CCCC[C@H](NC(C)=O)C(=O)N[C@H](C)C(=O)N[C@@H](Cc1c[nH]cn1)C(=O)N[C@@H](Cc1ccc(-c2ccccc2)cc1)C(=O)N[C@@H](CCCNC(=N)N)C(=O)N[C@H](Cc1c[nH]c2ccccc12)C(=O)N[C@@H](CC(=O)O)C(=O)N[C@@H](CCCNC(=N)N)C(=O)N[C@@H](Cc1ccccc1)C(=O)NCC(N)=O) [CTX-1168]
A: 28.6

Q: Any idea what its MC3R cAMP (EC50) is? The binder is Ac-[Nle][dV]HFR[dW]DRFG-OH (SMILES CCCC[C@H](NC(C)=O)C(=O)N[C@@H](C(=O)N[C@@H](Cc1c[nH]cn1)C(=O)N[C@@H](Cc1ccccc1)C(=O)N[C@@H](CCCNC(=N)N)C(=O)N[C@H](Cc1c[nH]c2ccccc12)C(=O)N[C@@H](CC(=O)O)C(=O)N[C@@H](CCCNC(=N)N)C(=O)N[C@@H](Cc1ccccc1)C(=O)NCC(=O)O)C(C)C) [CTX-1181]
A: 102

Q: Any idea what its MC3R cAMP (EC50) is? The binder is Ac-[Nle][dA]HFR[dW]DR[dF]-NH2 (SMILES CCCC[C@H](NC(C)=O)C(=O)N[C@H](C)C(=O)N[C@@H](Cc1c[nH]cn1)C(=O)N[C@@H](Cc1ccccc1)C(=O)N[C@@H](CCCNC(=N)N)C(=O)N[C@H](Cc1c[nH]c2ccccc12)C(=O)N[C@@H](CC(=O)O)C(=O)N[C@@H](CCCNC(=N)N)C(=O)N[C@H](Cc1ccccc1)C(N)=O) [CTX-1159]
A: 14.3

Q: Any idea what its MC3R cAMP (EC50) is? The binder is Ac-[Nle][dA]H[Phe(4-Br)]R[dW]DRFG-OH (SMILES CCCC[C@H](NC(C)=O)C(=O)N[C@H](C)C(=O)N[C@@H](Cc1c[nH]cn1)C(=O)N[C@@H](Cc1ccc(Br)cc1)C(=O)N[C@@H](CCCNC(=N)N)C(=O)N[C@H](Cc1c[nH]c2ccccc12)C(=O)N[C@@H](CC(=O)O)C(=O)N[C@@H](CCCNC(=N)N)C(=O)N[C@@H](Cc1ccccc1)C(=O)NCC(=O)O) [CTX-1165]
A: 3

Q: Any idea what its MC3R cAMP (EC50) is? The binder is YVXAHFRWDRFG (Nle at 3; D-Trp at 8) [CTX-1133]
A: 1.4

Q: Any idea what its MC3R cAMP (EC50) is? The binder is Ac-[Nle][dA]HFR[dW]DAFG-OH (SMILES CCCC[C@H](NC(C)=O)C(=O)N[C@H](C)C(=O)N[C@@H](Cc1c[nH]cn1)C(=O)N[C@@H](Cc1ccccc1)C(=O)N[C@@H](CCCNC(=N)N)C(=O)N[C@H](Cc1c[nH]c2ccccc12)C(=O)N[C@@H](CC(=O)O)C(=O)N[C@@H](C)C(=O)N[C@@H](Cc1ccccc1)C(=O)NCC(=O)O) [CTX-1534]
A: 38.8

Q: Any idea what its MC3R cAMP (EC50) is? The binder is PKcap1-G[dY]V[Nle][dA]HFR[dW]DRFG-OH [CTX-1151]
A: 299

Q: Any idea what its MC3R cAMP (EC50) is? The binder is PKcap2-G[Nle][dA]HFR[dW]DRFG-OH [CTX-1148]
A: 1.5

Q: Any idea what its MC3R cAMP (EC50) is? The binder is Ac-[Nle][dA]HFR[dW]DRFV-OH (SMILES CCCC[C@H](NC(C)=O)C(=O)N[C@H](C)C(=O)N[C@@H](Cc1c[nH]cn1)C(=O)N[C@@H](Cc1ccccc1)C(=O)N[C@@H](CCCNC(=N)N)C(=O)N[C@H](Cc1c[nH]c2ccccc12)C(=O)N[C@@H](CC(=O)O)C(=O)N[C@@H](CCCNC(=N)N)C(=O)N[C@@H](Cc1ccccc1)C(=O)N[C@H](C(=O)O)C(C)C) [CTX-1538]
A: 7.4
